tested on: sPLA2; assay type: cell-based, mouse; conditions: compared to LPS-exposed cells; lower dose: 4 1.44, 5 2.08, 6 0.5, 12 2.39, baicalein 0.89, ivermectin 131.01 µM
ASSAY READOUT: decrease in sPLA2 level (%)
Write the value in % as a bare number.

Below are worked cases with known answers.
MOLECULE	decrease in sPLA2 level [%]
COc1cc(C=Nn2c(Nc3ccc(S(=O)(=O)Nc4nccc(C)n4)cc3)nc3ccccc3c2=O)ccc1O	44.33
Cc1ccnc(NS(=O)(=O)c2ccc(N3CC(=O)Nn4c3nc3ccccc3c4=O)cc2)n1	66.47
CCOC(=O)c1nn2c(=O)c3ccccc3nc2n1-c1ccc(S(=O)(=O)Nc2nccc(C)n2)cc1	34.22
O=c1cc(-c2ccccc2)oc2cc(O)c(O)c(O)c12 [Baicalein, reference compound]	58.11

As a next step, examine the molecule that follows.
input: Give measured decrease in sPLA2 level for `Cc1ccnc(NS(=O)(=O)c2ccc(Nc3nc4ccccc4c(=O)n3N)cc2)n1` (sPLA2).
output: 55.29
